Target: recombinant human DLL4 (Cat# 1506-D4/CF, R&D Systems) (human) (UniProt Q9NR61)
Test: ELISA, DLL4 coated, Fab 50 nM
Parameter: ELISA absorbance at 450 nm. Scope: all listed entries.
Numeric answer only, unit A450 assumed.

Worked cases, answers included:
{"Binder": "Fab VH5-51_IGHD5-18*01>3_IGHJ4*01 G100K/G104T G24T/S28R/G35V Y105H & V3-4_IGLJ1*01 (Fab, V domains shown) VH: EVQLVQSGAEVKKPGESLKISCKTSGYRFTSYWIVWVRQMPGKGLEWMGIIYPGDSDTRYSPSFQGQVTISADKSISTAYLQWSSLKASDTAMYYCARRKYSYTHDYFDYWGQGTLVTVSS VL: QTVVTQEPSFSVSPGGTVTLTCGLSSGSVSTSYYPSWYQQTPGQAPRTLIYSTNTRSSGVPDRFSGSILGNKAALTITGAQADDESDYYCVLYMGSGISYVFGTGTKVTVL", "Observed result": 0.2}
{"Binder": "Fab VH5-51_IGHD5-18*01>3_IGHJ4*01 G100K/G104T G24T/S28R/G35V D109Q & V3-4_IGLJ1*01 (Fab, V domains shown) VH: EVQLVQSGAEVKKPGESLKISCKTSGYRFTSYWIVWVRQMPGKGLEWMGIIYPGDSDTRYSPSFQGQVTISADKSISTAYLQWSSLKASDTAMYYCARRKYSYTYDYFQYWGQGTLVTVSS VL: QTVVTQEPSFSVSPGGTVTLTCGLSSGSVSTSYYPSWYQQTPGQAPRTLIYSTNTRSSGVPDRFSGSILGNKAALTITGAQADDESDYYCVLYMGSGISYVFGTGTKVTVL", "Observed result": 0.25}
{"Binder": "Fab VH5-51_IGHD5-18*01>3_IGHJ4*01 G100K/G104T G24T/S28R/G35V Y107F & V3-4_IGLJ1*01 (Fab, V domains shown) VH: EVQLVQSGAEVKKPGESLKISCKTSGYRFTSYWIVWVRQMPGKGLEWMGIIYPGDSDTRYSPSFQGQVTISADKSISTAYLQWSSLKASDTAMYYCARRKYSYTYDFFDYWGQGTLVTVSS VL: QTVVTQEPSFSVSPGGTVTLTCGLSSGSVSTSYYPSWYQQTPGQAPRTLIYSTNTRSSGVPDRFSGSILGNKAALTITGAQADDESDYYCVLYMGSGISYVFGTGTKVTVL", "Observed result": 0.24}
{"Binder": "Fab VH5-51_IGHD5-18*01>3_IGHJ4*01 G100K & V3-4_IGLJ1*01 (Fab, V domains shown) VH: EVQLVQSGAEVKKPGESLKISCKGSGYSFTSYWIGWVRQMPGKGLEWMGIIYPGDSDTRYSPSFQGQVTISADKSISTAYLQWSSLKASDTAMYYCARRKYSYGYDYFDYWGQGTLVTVSS VL: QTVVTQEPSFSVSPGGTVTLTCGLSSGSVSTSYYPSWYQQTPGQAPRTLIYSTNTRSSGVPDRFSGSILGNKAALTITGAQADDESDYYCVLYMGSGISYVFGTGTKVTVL", "Observed result": 0.19}
{"Binder": "Fab VH5-51_IGHD5-18*01>3_IGHJ4*01 G100K/G104T G24T/S28R/G35V Y105N & V3-4_IGLJ1*01 (Fab, V domains shown) VH: EVQLVQSGAEVKKPGESLKISCKTSGYRFTSYWIVWVRQMPGKGLEWMGIIYPGDSDTRYSPSFQGQVTISADKSISTAYLQWSSLKASDTAMYYCARRKYSYTNDYFDYWGQGTLVTVSS VL: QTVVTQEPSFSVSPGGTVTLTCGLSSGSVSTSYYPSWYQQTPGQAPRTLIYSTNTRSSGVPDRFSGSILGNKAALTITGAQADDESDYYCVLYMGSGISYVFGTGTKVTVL", "Observed result": 0.18}

Consider now this further binder.
Q: Requested read-out: ELISA absorbance at 450 nm. Entry: Fab VH5-51_IGHD5-18*01>3_IGHJ4*01 G104T & V3-4_IGLJ1*01 (Fab, V domains shown) VH: EVQLVQSGAEVKKPGESLKISCKGSGYSFTSYWIGWVRQMPGKGLEWMGIIYPGDSDTRYSPSFQGQVTISADKSISTAYLQWSSLKASDTAMYYCARRGYSYTYDYFDYWGQGTLVTVSS VL: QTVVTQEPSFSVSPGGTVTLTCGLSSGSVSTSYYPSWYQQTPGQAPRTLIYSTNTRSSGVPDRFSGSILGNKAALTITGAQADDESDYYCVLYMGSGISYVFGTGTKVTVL
Ans: 0.17
